System: A549
Assay Text: NCI tumour cell line growth inhibition, 48 h
Calls of active or inactive are those of the source. Rule as the data show it: active = GI50 up to about 1.1 µM and inactive = higher.
Outcomes: active, inactive

- Compound: "Cn1c(=O)[nH]c2nncnc2c1=O"
  Group: "inactive"
- Compound: "N#CCc1ccc(/C(C#N)=C2/OC(=N)C(c3ccc(CC#N)cc3)C2=O)cc1 (centres undefined)"
  Group: "inactive"
- Compound: "c1ccc2c(OCC3CO3)ccc(OCC3CO3)c2c1 (centres undefined)"
  Group: "inactive"
- Compound: "O=c1[c-](-c2ccccc2)[se]c(-c2ccccc2)[n+]1-c1ccccc1"
  Group: "inactive"
- Compound: "O=C(OCc1ccc([N+](=O)[O-])cc1)N1c2ccccc2[C@@]23O[C@]24CCC[C@H]3C#C/C=C\\C#C[C@H]14"
  Group: "inactive"
- Compound: "COc1cc(OC)cc(-c2cc(O)c3cc4c(cc3n2)OCO4)c1"
  Group: "active"
- Compound: "CC(C)(C)c1cc(CCC(=O)Nc2ccc(Cl)cc2)nc(NC#N)n1"
  Group: "inactive"
- Compound: "Nc1ncnc2c1nnn2C1C=C(CO)C(O)C1O (centres undefined)"
  Group: "inactive"
- Compound: "C/C=C\\C(CC(=O)NCCC1CN(C(=O)OCc2ccccc2)c2ccccc21)CC(=O)OC (centres undefined)"
  Group: "inactive"
- Compound: "N#C[C@H](c1nc2ccccc2[nH]1)c1nc2ccccc2nc1Cl"
  Group: "inactive"
- Compound: "CC[P+](C)(C)CC"
  Group: "inactive"
- Compound: "CC1(C)COC(c2cccc3c2C(=O)c2cccc(Cl)c2-3)=N1"
  Group: "inactive"
- Compound: "O=C(CCc1cc(O)cc(O)c1)NCCCNC(=O)CCc1cc(O)cc(O)c1"
  Group: "inactive"
- Compound: "COc1ccc2nccc(C3OC(=O)N4CCC(=O)CC34)c2c1 (centres undefined)"
  Group: "inactive"
- Compound: "CCOC(=O)c1ccc(NCC#CCN2CCOCC2)cc1"
  Group: "inactive"
- Compound: "CSc1nc(CO)c(CO)n1C"
  Group: "inactive"
- Compound: "CCOC(=O)CSc1nc(N)c2c(-c3ccc(OC)c(OC)c3)c3c(nc2n1)CCCC3"
  Group: "inactive"
- Compound: "NC1=NS(=O)(=O)Nc2[nH]c(-c3ccccc3)nc21"
  Group: "inactive"
- Compound: "Cc1ccc(-c2nc(Cc3n[nH]c(-c4ccc(C)cc4)n3)n[nH]2)cc1"
  Group: "inactive"
- Compound: "NC(=O)C(=CN1C(=O)CC(=O)NC1=S)C(N)=O"
  Group: "inactive"
- Compound: "COC(=O)Cc1cc(OC)c(OC)cc1Br"
  Group: "inactive"
- Compound: "O=C(c1ccccc1)c1ccc2n[se]nc2c1"
  Group: "inactive"
- Compound: "COc1ccc(-n2cnc3c(N)nc(N)nc32)cc1"
  Group: "inactive"
- Compound: "CN(C)CCCN=C(N)N"
  Group: "inactive"

###

Test system: SK-MEL-2
Assay Text: NCI tumour cell line growth inhibition, 48 h
Activity calls are given as the source filed them. Rule as the data show it: active = GI50 up to about 1.1 µM and inactive = higher.
In this section, each of the compounds is paired with its reported GI50.

- Compound: "Cc1cccc2nc3cccc(C(=O)NCCN(C)C)c3nc12"
  GI50: "1.27 µM (inactive)"
- Compound: "CC(C)(C)N1CC2(CCCCC2)C1=O"
  GI50: "> 100 µM (inactive)"
- Compound: "CCc1nc(Cl)c(Cl)c(Cl)n1"
  GI50: "> 100 µM (inactive)"
- Compound: "COc1cc(/C=C2/Oc3c(OC)cccc3C2=O)ccc1O"
  GI50: "> 100 µM (inactive)"
- Compound: "N=c1c2c(-c3ccccc3)c[nH]c2ncn1N"
  GI50: "> 100 µM (inactive)"
- Compound: "CCCC(=O)Nc1cc(/C=C/C(=O)N2CC(CCl)c3c2cc(OC(C)=O)c2[nH]cc(C)c32)n(C)c1 (configuration not stated)"
  GI50: "5.92e-05 µM (active)"
- Compound: "O=C1CCC2(CC1CC[S+]([O-])c1ccccc1)OCCO2 (configuration not stated)"
  GI50: "> 100 µM (inactive)"
- Compound: "Nc1cccc2c1C1=NNC(=O)CC1C2 (configuration not stated)"
  GI50: "> 100 µM (inactive)"
- Compound: "Nc1ncnc2c1ncn2C1OC(CO)C2OC21 (configuration not stated)"
  GI50: "> 100 µM (inactive)"
- Compound: "O=C1C(Cl)=C(NCCO)C(=O)c2c(O)ccc(O)c21"
  GI50: "3.02 µM (inactive)"
- Compound: "COc1ccc2c(c1)C=C(C(C)(C)C)NS2(=O)=O"
  GI50: "> 100 µM (inactive)"
- Compound: "Cc1cnc2sn(-c3ccc(Br)cc3)c(=O)c2c1"
  GI50: "> 100 µM (inactive)"
- Compound: "CCCC(=O)OC1C(C(O)CO)OC2OC(C)(C)OC21 (configuration not stated)"
  GI50: "> 100 µM (inactive)"
- Compound: "O=C1C(=O)N(c2cccc(C(F)(F)F)c2)C(=S)N1c1ccccc1"
  GI50: "19.1 µM (inactive)"
- Compound: "CO[C@@H]1[C@H](OC(=O)NC(=O)CCl)CC[C@]2(CO2)[C@H]1[C@@]1(C)O[C@@H]1CC=C(C)C [O-CHLOROACETYLCARBAMOYLFUMAGILLOL]"
  GI50: "13.6 µM (inactive)"
- Compound: "CC(C)[C@@H](COC(C)(C)C)/N=C/N1CCc2c([nH]c3ccccc23)C1"
  GI50: "> 100 µM (inactive)"
- Compound: "Oc1ccc(/C=C/c2ccc3cccc(O)c3n2)cc1O"
  GI50: "11.9 µM (inactive)"
- Compound: "CC1(C)C2CCC1(C)C(OC(=O)/C=C/C(=O)OC1CC3CCC1(C)C3(C)C)C2 (configuration not stated)"
  GI50: "61.7 µM (inactive)"
- Compound: "N=C(N)SCc1cccc2c(=O)cc(-c3ccccc3)oc12"
  GI50: "5.56 µM (inactive)"
- Compound: "COC(=O)C(C(=O)C(=O)Nc1ccc(C)cc1)c1nc2ccc([N+](=O)[O-])cc2nc1O (configuration not stated)"
  GI50: "> 100 µM (inactive)"
- Compound: "C=CCN(c1cc(OCc2ccccc2)c2[nH]cc(C)c2c1)S(C)(=O)=O"
  GI50: "41.7 µM (inactive)"
- Compound: "O=c1c(C(c2ccc(O)cc2)c2c(O)oc3ccccc3c2=O)c(O)oc2ccccc12"
  GI50: "> 100 µM (inactive)"

###

In this section, each of the compounds is paired with its reported GI50.
Test system: Malme-3M
Assay Text: NCI tumour cell line growth inhibition, 48 h
Active and inactive are the calls of the source. Cut-off read from the data, not from the text of the source: active = GI50 up to about 1.1 µM and inactive = higher.
Value Type: GI50

- Compound: "NS(=O)(=O)c1ccc(NC(=O)c2cc([N+](=O)[O-])cc([N+](=O)[O-])c2)cc1"
  Value Type: "GI50"
  Result: "24.8 µM (inactive)"
- Compound: "O=C(CC(=O)N(C(=O)/C=C\\c1ccccc1)c1ccc(Cl)cc1)N1N=C(c2ccccc2)C(/N=N/c2cccc([N+](=O)[O-])c2)C1=O (stereo not given)"
  Value Type: "GI50"
  Result: "11.3 µM (inactive)"
- Compound: "N/N=C1\\C(OC(=O)Nc2cccc(Cl)c2)=Nc2ccccc21"
  Value Type: "GI50"
  Result: "12.1 µM (inactive)"
- Compound: "O=C(N/C(=C\\c1ccccc1O)c1nc2ccccc2[nH]1)c1ccccc1"
  Value Type: "GI50"
  Result: "> 100 µM (inactive)"
- Compound: "N#C/C(=C(\\O)C(=O)O)c1ccc(-c2cccc3ccccc23)cc1"
  Value Type: "GI50"
  Result: "> 100 µM (inactive)"
- Compound: "CCOC(=O)Nc1cc2nnc(-c3ccccc3)nc2c(N)n1"
  Value Type: "GI50"
  Result: "4.8 µM (inactive)"
- Compound: "COc1cc(C2c3cc4c(cc3CC3COC(=O)N32)OCO4)cc(OC)c1OC (stereo not given)"
  Value Type: "GI50"
  Result: "2.83 µM (inactive)"
- Compound: "Cn1c(N)c(/N=N/c2ccc(S(N)(=O)=O)cc2)c(=O)n(C)c1=O"
  Value Type: "GI50"
  Result: "> 100 µM (inactive)"
- Compound: "CC(=O)NC1CCC(NC(=O)OC(C)(C)C)C(NC(=O)OC(C)(C)C)C1 (stereo not given)"
  Value Type: "GI50"
  Result: "> 100 µM (inactive)"
- Compound: "C[C@]12CC[C@@H]3c4ccc(O)cc4CC[C@H]3[C@@H]1C/C(=C\\c1ccc(C#N)cc1)C2=O"
  Value Type: "GI50"
  Result: "28.3 µM (inactive)"

###

Tested on: MDA-MB-231
Assay Text: NCI tumour cell line growth inhibition, 48 h
Calls of active or inactive are those of the source. No stated cut-off is given here; in the data, active = GI50 up to about 1.1 µM and inactive = higher.
Outcomes: yes (1) for active, no (0) for inactive

- Compound: "O=C(OCc1ccc([N+](=O)[O-])cc1)N1c2ccccc2[C@@]23O[C@]24CCC[C@H]3C#C/C=C\\C#C[C@H]14"
  Target Or Test System: "MDA-MB-231"
  Group: "no (0)"
- Compound: "C/C=C\\C(CC(=O)NCCC1CN(C(=O)OCc2ccccc2)c2ccccc21)CC(=O)OC (stereo not drawn)"
  Target Or Test System: "MDA-MB-231"
  Group: "no (0)"
- Compound: "CN1CCc2c(sc3ncn(C)c(=N)c23)C1"
  Target Or Test System: "MDA-MB-231"
  Group: "no (0)"
- Compound: "O=C(O)CSc1n[nH]c(=O)[nH]c1=O"
  Target Or Test System: "MDA-MB-231"
  Group: "no (0)"
- Compound: "COC(=O)C12OCC34C(CC5C(C)=CC(=O)C(O)C5(C)C3C(O)C1O)OC(=O)C(OC(=O)CC(C)C)C24 (stereo not drawn)"
  Target Or Test System: "MDA-MB-231"
  Group: "yes (1)"
- Compound: "COC1CC(OC2OC(CO)C(O)C(O)C2O)/C(=C\\C#N)C(O)C1OC (stereo not drawn)"
  Target Or Test System: "MDA-MB-231"
  Group: "no (0)"
- Compound: "CC(C)CC(NC(O)[BH2-][N+](C)(C)C)C(=O)NC(Cc1ccccc1)C(=O)N[C@H]1c2ccsc2/C(=N/O)[C@H]1O (stereo partly drawn)"
  Target Or Test System: "MDA-MB-231"
  Group: "no (0)"
- Compound: "COc1cc(-c2cc(=O)c3c(O)c(CC=C(C)C)c(O)cc3o2)ccc1O"
  Target Or Test System: "MDA-MB-231"
  Group: "no (0)"
